# experimental-system: PAK4 kinase activity in whole cells (TR-293-KDG, modified HEK 293 overexpressing GEF-H1b and PAK4 KD) (Homo sapiens (Human), UniProt O96013)
# experiment-notes: PAK4 cellular assay: sandwich ELISA of PAK4-dependent phosphorylation of GEF-H1b in TR-293-KDG cells
# measurement-conditions: doxycycline-induced, 3-hour exposure, phospho-GEF-H1b ELISA
measured-endpoint: EC50 (nM)
Answers are plain numbers, in nM.

Hello, I would appreciate it if you could give EC50 for each entry below.
1. CC1(C)c2[nH]nc(Nc3nc(Cl)nc4ccsc34)c2CN1C(=O)N[C@@H]1C[C@H]1c1ccccc1 (relative stereo)
2. Cc1ncnc(Nc2n[nH]c3c2CN(C(=O)N[C@H](CN(C)C)c2ccccc2)C3(C)C)c1F

1: 36; 2: 570

----------
# experimental-system: PAK4 kinase domain (PAK4 KD) (Homo sapiens (Human))
# experiment-notes: PAK4 kinase domain enzymatic assay (coupled PK/LDH, NADH absorbance at 340 nm)
# Format: biochemical
# measurement-conditions: PAK4 kinase domain, 25 nM PAK4 KD, 0.04 mM ATP, pH 7.5
Give log10 Ki for every item shown.
Recall that a logarithmic scale is used here: each number is log10 of Ki in nM.

Worked cases, answers included:
| compound | log10 Ki |
| --- | --- |
| CCOc1ncc(F)c(Nc2n[nH]c3c2CN(C(=O)O[C@H](CN(C)C)c2ccccc2)C3(C)C)n1 | 1.20 |
| CN(C)C[C@@H](OC(=O)N1Cc2c(Nc3ncnc4sccc34)n[nH]c2C1(C)C)c1ccccc1 | 0.72 |
| COc1nc(Nc2n[nH]c3c2CN(C(=O)NC2CC2c2ccccc2)C3(C)C)nc(N2CC2C)n1 (centres unmarked) | 2.53 |
| Cc1ncc(F)c(Nc2n[nH]c3c2CN(C(=O)N[C@@H]2C[C@H]2c2ccccc2)C3(C)C)n1 (relative stereo) | 2.36 |
| CCCOc1nc(Cl)nc(Nc2n[nH]c3c2CN(C(=O)N[C@@H]2C[C@H]2c2ccccc2)C3(C)C)n1 (relative stereo) | 1.94 |
| CN(C)C[C@@H](NC(=O)N1Cc2c(Nc3nc(C#N)nc4ccccc34)n[nH]c2C1(C)C)c1ccccc1 | 0.48 |
| CC1(C)c2[nH]nc(Nc3cc(C(F)(F)F)ccn3)c2CN1C(=O)N[C@H]1C[C@@H]1c1ccccc1 (relative stereo) | 2.89 |
| CC1(C)c2[nH]nc(Nc3nc(Cl)nc4ccsc34)c2CN1C(=O)N[C@@H]1C[C@H]1c1ccccc1 (relative stereo) | 1.15 |

Hello, I would appreciate it if you could give log10 Ki for each entry below.
1. CC1(C)c2[nH]nc(Nc3cc(Cl)nc(Cl)n3)c2CN1C(=O)N[C@H]1C[C@@H]1c1ccccc1 (relative stereo)
2. Cc1nc(Nc2n[nH]c3c2CN(C(=O)N[C@@H]2C[C@H]2c2ccccc2)C3(C)C)cc(N(C)C)n1 (relative stereo)
3. Cc1nc(Nc2n[nH]c3c2CN(C(=O)N[C@@H]2C[C@H]2c2ccccc2)C3(C)C)cc(N2CCOCC2)n1 (relative stereo)
4. CN(C)c1nc(Nc2n[nH]c3c2CN(C(=O)NC2C[C@@H]2c2ccccc2)C3(C)C)nc(N2CCC[C@H]2C(N)=O)n1 (some centres unmarked)
5. CN1CCN(C(=O)N2Cc3c(Nc4nc(Cl)nc5ccsc45)n[nH]c3C2(C)C)[C@@H](Cc2ccccc2)C1
6. CN(C)C[C@@H](OC(=O)N1Cc2c(Nc3nc(C#N)nc4ccccc34)n[nH]c2C1(C)C)c1ccccc1

2.04
1.98
1.32
2.86
1.04
0.56

----------
# experimental-system: PAK4 kinase activity in whole cells (TR-293-KDG, modified HEK 293 overexpressing GEF-H1b and PAK4 KD) (Homo sapiens (Human), UniProt O96013)
# experiment-notes: PAK4 cellular assay: sandwich ELISA of PAK4-dependent phosphorylation of GEF-H1b in TR-293-KDG cells
# measurement-conditions: doxycycline-induced, 3-hour exposure, phospho-GEF-H1b ELISA
measured-endpoint: log10 EC50 (log10 of the value in nM)
Recall that a logarithmic scale is used here: each number is log10 of EC50 in nM.

| molecule | measured-endpoint | result |
| --- | --- | --- |
| COc1nc(Nc2n[nH]c3c2CN(C(=O)NC2CC2c2ccccc2)C3(C)C)nc(N2CCC[C@H]2C#N)n1 (stereo in doubt) | log10 EC50 | 3.08 |
| Cc1cc2c(Nc3n[nH]c4c3CN(C(=O)N[C@H](CN(C)C)c3ccccc3)C4(C)C)ncnc2s1 | log10 EC50 | 1.18 |
| CN(C)C[C@@H](OC(=O)N1Cc2c(Nc3ncncc3F)n[nH]c2C1(C)C)c1ccccc1 | log10 EC50 | 1.30 |
| Cc1nc(Nc2n[nH]c3c2CN(C(=O)N[C@@H]2C[C@H]2c2ccccc2)C3(C)C)cc(N2CCOCC2)n1 (relative stereo) | log10 EC50 | 2.89 |
| CC1(C)c2[nH]nc(Nc3ncnc4sccc34)c2CN1C(=O)N[C@@H]1C[C@H]1c1ccccc1 (relative stereo) [Example 42] | log10 EC50 | 2.79 |
| Cc1ncnc(Nc2n[nH]c3c2CN(C(=O)O[C@H](CN(C)C)c2ccccc2)C3(C)C)c1F | log10 EC50 | 1.84 |

Hello, I would appreciate it if you could give log10 EC50 for each entry below.
1. Cc1nc(Nc2n[nH]c3c2CN(C(=O)O[C@H](CN(C)C)c2ccccc2)C3(C)C)c2ccsc2n1
2. CCOc1ncc(F)c(Nc2n[nH]c3c2CN(C(=O)N[C@@H]2C[C@H]2c2ccccc2)C3(C)C)n1 (relative stereo)
3. CC1(C)c2[nH]nc(Nc3nc(Cl)nc4ccccc34)c2CN1C(=O)NC1CC1c1ccccc1 (stereo not drawn)
4. CN(C)C[C@@H](OC(=O)N1Cc2c(Nc3ncnc4ccsc34)n[nH]c2C1(C)C)c1ccccc1
5. Cc1nc(Nc2n[nH]c3c2CN(C(=O)N[C@@H]2C[C@H]2c2ccccc2)C3(C)C)c2sccc2n1

[0.48, 2.91, 1.89, 1.30, 1.28]

----------
# experimental-system: PAK4 kinase domain (PAK4 KD) (Homo sapiens (Human), UniProt O96013)
# Sequence (O96013 321-572): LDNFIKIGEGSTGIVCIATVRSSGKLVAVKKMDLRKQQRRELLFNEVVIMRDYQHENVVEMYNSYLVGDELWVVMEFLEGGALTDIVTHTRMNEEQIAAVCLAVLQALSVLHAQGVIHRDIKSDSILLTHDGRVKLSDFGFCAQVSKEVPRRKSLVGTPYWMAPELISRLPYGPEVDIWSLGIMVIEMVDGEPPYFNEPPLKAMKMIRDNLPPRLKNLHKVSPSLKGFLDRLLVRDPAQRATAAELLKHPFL
# experiment-notes: PAK4 kinase domain enzymatic assay (coupled PK/LDH, NADH absorbance at 340 nm)
# Assay type: biochemical
# measurement-conditions: PAK4 kinase domain, 25 nM PAK4 KD, 0.04 mM ATP, pH 7.5
Give Ki for every item shown.
Answers are plain numbers, in nM.

Worked cases, answers included:
| compound | experimental-system | measured-endpoint | result |
| --- | --- | --- | --- |
| CC1(C)c2[nH]nc(Nc3nc(Cl)nc4ccccc34)c2CN1C(=O)NC1CC1c1ccccc1 (centres unmarked) [Example 12] | PAK4 kinase domain (PAK4 KD) (Homo sapiens (Human), UniProt O96013) | Ki | 38 |
| Cc1nc(Nc2n[nH]c3c2CN(C(=O)N[C@@H]2C[C@H]2c2ccccc2)C3(C)C)c2sccc2n1 [Example 32] | PAK4 kinase domain (PAK4 KD) (Homo sapiens (Human), UniProt O96013) | Ki | 3.5 |
| Cc1ncnc(Nc2n[nH]c3c2CN(C(=O)N[C@H](CN(C)C)c2ccccc2)C3(C)C)c1F [Example 56] | PAK4 kinase domain (PAK4 KD) (Homo sapiens (Human), UniProt O96013) | Ki | 240 |
| CN(C)c1nc(Cl)nc(Nc2n[nH]c3c2CN(C(=O)N[C@@H]2C[C@H]2c2ccccc2)C3(C)C)n1 (relative stereo) [Example 15] | PAK4 kinase domain (PAK4 KD) (Homo sapiens (Human), UniProt O96013) | Ki | 90 |

Next item in the queue.
Identify measured Ki associated with Cc1csc2c(Nc3n[nH]c4c3CN(C(=O)N3C[C@@H]5CCCN5C[C@@H]3C)C4(C)C)ncnc12 [Example 81]
84

----------
# experimental-system: PAK4 kinase domain (PAK4 KD) (Homo sapiens (Human), UniProt O96013)
# experiment-notes: PAK4 kinase domain enzymatic assay (coupled PK/LDH, NADH absorbance at 340 nm)
# Format: biochemical
# measurement-conditions: PAK4 kinase domain, 25 nM PAK4 KD, 0.04 mM ATP, pH 7.5
# Method: Cloning, expression, and purification of recombinant PAK4 Kinase domain (PAK4 KD): The cDNA coding for PAK4 was amplified from the EST clone (#12) (purchased from Research Genetics) by using PCR. […] PAK4 kinase domain enzymatic assay conditions: the enzymatic activity of PAK4 KD was measured by its ability to catalyze the transfer of a phosphate residue from a nucleoside triphosphate to an amino acid side chain of a commercially available peptide (amino acid sequence […]). […]
Give log10(Ki) for every item shown.
Recall that a logarithmic scale is used here: each number is log10 of Ki in nM.

Hello, I would appreciate it if you could give log10(Ki) for each entry below.
1. CC1(C)c2[nH]nc(Nc3ncnc4ccoc34)c2CN1C(=O)N[C@H]1C[C@@H]1c1ccccc1 (relative stereo)
2. CC1(C)c2[nH]nc(Nc3ncnc4sccc34)c2CN1C(=O)N[C@@H]1C[C@H]1c1ccccc1 (relative stereo) [Example 42]

1: 1.83; 2: 1.97

Hello, I would appreciate it if you could give log10(Ki) for each entry below.
1. Cc1cc(C(F)(F)F)cc(Nc2n[nH]c3c2CN(C(=O)N[C@H]2C[C@@H]2c2ccccc2)C3(C)C)n1 (relative stereo)
2. Cc1cc2c(Nc3n[nH]c4c3CN(C(=O)O[C@H](CN(C)C)c3ccccc3)C4(C)C)ncnc2s1
3. CN(C)c1nc(Nc2n[nH]c3c2CN(C(=O)NC2C[C@@H]2c2ccccc2)C3(C)C)nc(N2CCC[C@H]2CO)n1 (stereo partly shown)
4. CC1(C)c2[nH]nc(Nc3nc(C#N)nc4ccccc34)c2CN1C(=O)N[C@@H]1C[C@H]1c1ccccc1 (relative stereo)
5. CN(C)C[C@@H](OC(=O)N1Cc2c(Nc3ncnc4c3ncn4C)n[nH]c2C1(C)C)c1ccccc1

1. 2.34
2. 0.72
3. 2.15
4. 1.26
5. 2.52

Each recorded value in this set is attributed to patent US8530652B2.
